test system: OVCAR-8 ovarian; test: NCI tumour cell line growth inhibition, 48 h
I'd be grateful if you could share measured TGI for these entries.

For Cc1ccc(NC(=O)C2C3C=CC(O3)C2C(=O)O)cc1 (stereo not given) , what is its reported TGI? > 100 µM

Proceed to Cc1ccc(-c2cc(C(=O)Nc3ccc(S(=O)(=O)N4CCCCC4)cc3)[nH]n2)c(O)c1 > 100 µM

Okay, and Cc1n[nH]c(=O)n1C1CC1 ? > 100 µM

Please give the result for O=C(C[C@@H]1CCCN2CCCC[C@H]12)N1c2ccccc2Sc2ccc(Cl)cc21 too. 37.2 µM

What about CN(C)c1ccc(N=C2N=C(Nc3ccccc3)C(=Nc3ccccc3)S2)cc1 ? > 100 µM

Moving on to Cc1ccc(S(=O)(=O)C2=Cc3ccccc3C2(O)c2ccccc2)cc1 (stereo not given) 81.2 µM

Would you kindly repeat that for CN1CCc2ccccc2C1Cc1ccccc1NC(=O)c1sc2ccccc2c1Cl (stereo not given) ? > 100 µM

What do we get for COc1ccc(C(=O)/C=C/c2cc(-c3ccc(OC)c(OC)c3)n[nH]2)cc1OC ? 22.4 µM

Now this one: Cc1cccc(N=Nc2c(C)nn(C(=O)CC(=O)Nc3ccc(Cl)cc3)c2C)c1 > 100 µM

How about this compound: CC(=O)OCC1OC(SC2=N/C(=C\c3ccc(Br)s3)C(=O)N2c2ccccc2)C(OC(C)=O)C(OC(C)=O)C1OC(C)=O (stereo not given) > 100 µM
